# assayed target: T1, SARS-CoV-2 spike protein (SARS-CoV-2, UniProt P0DTC2 14-1208)
# T1 construct: also called SARS-CoV-2 S protein; antigen of interest
# protocol description: HT-SPR, Carterra LSA; mAb coupled to chip, antigen injected; 1:1 fit
Give Kd for every item shown.
Value expressed in nM; do not type the unit.

Q. Report Kd for antibody 530 (antibody, V domains shown, also called mAb 530) VH: EVQLVESGGGLVQPGGSLRLSCAASGFTFSSYWMSWVRQAPGKGLEWVANIKQDGSEKYYVDSVKGRFTISRDNAKNSLYLQMNSLRAEDTAVYYCAREPQLWSEYYFDYWGQGTLVTVSS VL: DIQMTQSPSSLSASVGDRVTITCRASQGISSWLAWYQQKPEKAPKSLIYAASSLQSGVPSRFSGSGSGTDFTLTISSLQPEDFATYYCQQYNSYPPTFGQGTRLEIK please.
A. 2.19

Q. Another binder to look at: antibody 585 (antibody, V domains shown) VH: QVQLVESGGGVVQPGRSLRLSCAASGFTFATYAMHWVRQAPGKGLEWVALISHDGSNKHYADSVKGRFTISRDNSKKTLYLQMNSLRAEGTAIYYCARESLEAAAPPFDYWGQGTLVTVSS VL: SYELTQPPSVSVSPGQTATIICSGDKLGEKYASWYQQKPGQSPALVIYQDRKRPSGIPERFSGSNSGNTATLTISGTQAMDEADYYCQAWDSSNSVVFGGGTKLTVP
A. 0.248
